Target: SaSDH (Staphylococcus aureus)
Construct: 6His-tag (N); made in house; host or cells: E. coli BL21(DE3)pLysS
Assay: SaSDH inhibition assays (single concentration and inhibition kinetics)
Type: biochemical
Settings: Kic, substrate NADP^+; inhibitor binding to the substrate site
ATTRIBUTE_MEASURED: pKi
Answers are plain numbers, as −log10 of the molar value.

Record request: pKi value, item O=C1COc2cc(O)ccc21 [compound 894, 6-hydroxy-2,3-dihydrobenzo[b]furan-3-one]
3.05

* * *

Target: SaSDH (Staphylococcus aureus)
Construct: 6His-tag (N); made in house; host or cells: E. coli BL21(DE3)pLysS
Assay: SaSDH kinetic parameters for substrates
Format: biochemical, methicillin-resistant S. aureus
Details: substrate of SaSDH; read-out: Kia (dissociation constant)
ATTRIBUTE_MEASURED: Kd
Remember to follow the number with its unit.

Hello, I would appreciate it if you could give Kd for each entry below.
1. NC(=O)c1ccc[n+]([C@@H]2O[C@H](COP(=O)([O-])OP(=O)(O)OC[C@H]3O[C@@H](n4cnc5c(N)ncnc54)[C@H](OP(=O)(O)O)[C@@H]3O)[C@@H](O)[C@H]2O)c1
2. O=C(O)C1=C[C@@H](O)[C@@H](O)[C@H](O)C1 [Shikimate, shikimate]

1: 21 µM; 2: 21.2 µM

* * *

Target: SaSDH (Staphylococcus aureus, UniProt Q6GGA5)
Construct: 6His-tag (N); made in house; host or cells: E. coli BL21(DE3)pLysS
Experiment: SaSDH inhibition assays (single concentration and inhibition kinetics)
Format: biochemical
Settings: inhibition of SaSDH activity, compound at 200 µM
ATTRIBUTE_MEASURED: inhibition at 200 µM (%)
Numbers only, in %.

Consider the reported inhibition at 200 µM for these compounds:
>>> recorded_measurement("COC(=O)c1sc2ccccc2c1O [compound 62]")
33
>>> recorded_measurement("CN(C)CCOc1ccccc1CO [compound 463]")
45
>>> recorded_measurement("O=C1COc2cc(O)ccc21 [compound 894, 6-hydroxy-2,3-dihydrobenzo[b]furan-3-one]")
99

Hello, I would appreciate it if you could give inhibition at 200 µM for each entry below.
1. OCC1COc2ccccc2C1 (stereo not shown) [compound 291]
2. CCCCC#Cc1ccc(C(=O)O)o1 [compound 637]
3. O=C(O)c1ccc(CN2CCOCC2)cc1 [compound 306]
4. CN(CCO)c1cc(C(F)(F)F)nc2ccccc12 [compound 626]
5. O=C(O)c1csc(-c2ccc(C(F)(F)F)cc2)n1 [compound 692]
6. Cc1c(O)ccc2c1OC(C)(C)CC2=O [compound 766]
7. O=C(O)c1ccc(-c2cccs2)s1 [compound 238, 2,2'-bithiophene-5-carboxylic acid]

[31, 29, 31, 49, 31, 87, 87]

* * *

Biological target: SaSDH (Staphylococcus aureus, UniProt Q6GGA5)
Construct: 6His-tag (N); made in house; host or cells: E. coli BL21(DE3)pLysS
Assay: SaSDH inhibition assays (single concentration and inhibition kinetics)
Format: biochemical
Conditions: Kic, substrate shikimate; inhibitor binding to the substrate site
So I've got a bunch of compounds here, and I need their Ki values.
Remember to follow the number with its unit.

>>> recorded_measurement("O=C1COc2cc(O)ccc21 [compound 894, 6-hydroxy-2,3-dihydrobenzo[b]furan-3-one]")
"58.3 µM"

# evaluate next
Return Ki measured with SaSDH (Staphylococcus aureus, UniProt Q6GGA5) given this compound: O=C(O)c1ccc(-c2cccs2)s1
9.53 µM

* * *

Molecular target: SaSDH (Staphylococcus aureus)
Construct: 6His-tag (N); made in house; host or cells: E. coli BL21(DE3)pLysS
Assay: SaSDH inhibition assays (single concentration and inhibition kinetics)
Format: biochemical
Conditions: Kiu, substrate shikimate; inhibitor binding to enzyme-substrate complex
Procedure: Once the model was built, a rigid body docking procedure for virtual screening with a library of small molecules was performed. […] The one hundred molecules with the highest binding energies were selected, and the capacities of these molecules to inhibit SaSDH were assessed. […] Enzyme activity was measured spectrophotometrically at 25 °C at 340 nm, following NADPH generation (ε = 6.19 × 10^3 M^−1 cm^−1). […]
ATTRIBUTE_MEASURED: Ki
Remember to follow the number with its unit.

Return Ki measured with SaSDH (Staphylococcus aureus) given this compound: O=C1COc2cc(O)ccc21 [compound 894, 6-hydroxy-2,3-dihydrobenzo[b]furan-3-one]
1.47 mM

* * *

Molecular target: SaSDH (Staphylococcus aureus)
Construct: 6His-tag (N); made in house; host or cells: E. coli BL21(DE3)pLysS
Test: SaSDH kinetic parameters for substrates
Type: biochemical, methicillin-resistant S. aureus
Details: substrate of SaSDH; listed as SHK; read-out: Kia (dissociation constant)
ATTRIBUTE_MEASURED: Kd (µM)
Numbers only, in µM.

Return Kd measured with SaSDH (Staphylococcus aureus) given this molecule: O=C(O)C1=C[C@@H](O)[C@@H](O)[C@H](O)C1 [Shikimate, shikimate]
21.2

* * *

Target: SaSDH (Staphylococcus aureus, UniProt Q6GGA5)
Construct: 6His-tag (N); made in house; host or cells: E. coli BL21(DE3)pLysS
Sequence (Q6GGA5 1-268): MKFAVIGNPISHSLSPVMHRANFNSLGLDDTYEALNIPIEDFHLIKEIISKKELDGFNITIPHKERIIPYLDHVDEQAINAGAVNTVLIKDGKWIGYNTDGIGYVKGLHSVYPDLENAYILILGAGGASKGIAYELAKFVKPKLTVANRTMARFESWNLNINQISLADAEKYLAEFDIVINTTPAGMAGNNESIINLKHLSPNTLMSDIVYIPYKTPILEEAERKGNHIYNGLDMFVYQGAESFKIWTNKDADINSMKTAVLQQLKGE
Assay: SaSDH inhibition assays (single concentration and inhibition kinetics)
Format: biochemical
Conditions: i0.5 at 400 μM of substrate, substrate NADP^+, 400 μM; 50% inhibition concentration
So I've got a bunch of compounds here, and I need their pIC50 values.
Numbers only, as −log10 of the molar value.

Consider the reported pIC50 for these compounds:
>>> recorded_measurement("O=C(O)c1ccc(-c2cccs2)s1")
3.97
>>> recorded_measurement("O=C1COc2cc(O)ccc21 [compound 894, 6-hydroxy-2,3-dihydrobenzo[b]furan-3-one]")
3.21

Record request: pIC50 value, item Cc1c(O)ccc2c1OC(C)(C)CC2=O
3.25

* * *

Molecular target: SaSDH (Staphylococcus aureus, UniProt Q6GGA5)
Construct: 6His-tag (N); made in house; host or cells: E. coli BL21(DE3)pLysS
Assay: SaSDH inhibition assays (single concentration and inhibition kinetics)
Format: biochemical
Conditions: i0.5 at 400 μM of substrate, substrate shikimate, 400 μM; 50% inhibition concentration
So I've got a bunch of molecules here, and I need their pIC50 values.
Answers are plain numbers, as −log10 of the molar value.

Hello, I would appreciate it if you could give pIC50 for each entry below.
1. O=C1COc2cc(O)ccc21 [compound 894, 6-hydroxy-2,3-dihydrobenzo[b]furan-3-one]
2. O=C(O)c1ccc(-c2cccs2)s1
3. Cc1c(O)ccc2c1OC(C)(C)CC2=O

1: 3.84; 2: 3.91; 3: 3.46

* * *

Target: SaSDH (Staphylococcus aureus)
Construct: 6His-tag (N); made in house; host or cells: E. coli BL21(DE3)pLysS
Sequence (Q6GGA5 1-268): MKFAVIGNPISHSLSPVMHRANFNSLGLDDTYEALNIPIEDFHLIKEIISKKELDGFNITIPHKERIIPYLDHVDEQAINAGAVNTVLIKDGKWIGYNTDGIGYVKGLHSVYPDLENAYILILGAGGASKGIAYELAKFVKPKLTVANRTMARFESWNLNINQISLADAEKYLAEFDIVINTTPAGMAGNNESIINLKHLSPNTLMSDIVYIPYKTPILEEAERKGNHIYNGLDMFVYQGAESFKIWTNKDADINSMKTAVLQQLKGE
Assay: SaSDH inhibition assays (single concentration and inhibition kinetics)
Type: biochemical
Settings: Kiu, substrate NADP^+; inhibitor binding to enzyme-substrate complex
ATTRIBUTE_MEASURED: pKi
Answers are plain numbers, as −log10 of the molar value.

Consider the reported pKi for these compounds:
>>> recorded_measurement("Cc1c(O)ccc2c1OC(C)(C)CC2=O [compound 766]")
4.95
>>> recorded_measurement("O=C(O)c1ccc(-c2cccs2)s1 [compound 238, 2,2'-bithiophene-5-carboxylic acid]")
4.32

Record request: pKi value, item O=C1COc2cc(O)ccc21 [compound 894, 6-hydroxy-2,3-dihydrobenzo[b]furan-3-one]
5.28
